- System: HeLa Kyoto;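 also: synchronized HeLa Kyoto cells (double thymidine block for G1/S, nocodazole release for mitosis), protein amounts in NP-40 versus SDS lysates quantified by mass spectrometry, three biological replicates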
- run_description: solubility change mitosis vs G1/S (difference of NP-40 vs SDS log2 ratios) (log2 ratio difference); higher = more soluble in mitosis
measurement_type: solubility change mitosis (log2)

Q. Please look at this sequence and report its solubility change mitosis (log2): MPHSYPALSAEQKKELSDIALRIVAPGKGILAADESVGSMAKRLSQIGVENTEENRRLYRQVLFSADDRVKKCIGGVIFFHETLYQKDDNGVPFVRTIQDKGIVVGIKVDKGVVPLAGTDGETTTQGLDGLSERCAQYKKDGADFAKWRCVLKISERTPSALAILENANVLARYASICQQNGIVPIVEPEILPDGDHDLKRCQYVTEKVLAAVYKALSDHHVYLEGTLLKPNMVTPGHACPIKYTPEEIAMATVTALRRTVPPAVPGVTFLSGGQSEEEASFNLNAINRCPLPRPWALTFSYGRALQASALNAWRGQRDNAGAATEEFIKRAEVNGLAAQGKYEGSGEDGGAAAQSLYIANHAY [ALDOC]
A. -0.0816
